Test: In vivo PK of ortho phosphate bearing 3-AP prodrugs, single intravenous dose, beagle dog
Conditions: prodrug in dog; single i.v. dose 7.2-8.5 mg/kg
MEASURED METRIC: Vss of prodrug (L/kg)
Return type: number; implicit unit L/kg.

COMPOUND STRUCTURE: NC(=S)N/N=C/c1ncccc1NC(=O)OCc1cc(Cl)cc(Cl)c1OP(=O)(O)O
UNIT NAME: L/kg
Vss of prodrug: 0.08

What does the record list as Vss of prodrug for `NC(=S)N/N=C/c1ncccc1NC(=O)OCc1cc(C(F)(F)F)ccc1OP(=O)(O)O` ? 0.08

What does the record list as Vss of prodrug for `Cc1cccc(COC(=O)Nc2cccnc2/C=N/NC(N)=S)c1OP(=O)(O)O` ? 0.08

What does the record list as Vss of prodrug for `NC(=S)N/N=C/c1ncccc1NC(=O)OCc1cc([N+](=O)[O-])ccc1OP(=O)(O)O` ? 0.12
